- method: Intrinsic clearance in human liver microsomes
- Assay type: ADME, Microsome
measure.name: microsomal CLint

O=C(NCc1ccncn1)c1ccc(Oc2ccc(C#C[C@]3(O)CN4CCC3CC4)cc2)cc1 :: < 2 µL/min/mg

---

- method: Chemical stability of the compound assessed as half life at pH 4 to 10
- Type: physicochemical
- recorded.conditions: buffer
measure.name: half-life

O=C(NCc1ccncc1)c1ccc(Oc2ccc(C#C[C@@]3(O)CN4CCC3CC4)cc2)cc1 :: > 41.7 days
O=C(NCc1ccncn1)c1ccc(Oc2ccc(CCC3(O)CN4CCC3CC4)cc2)cc1 (stereo unspecified) :: > 41.7 days
O=C(NCc1ccncc1)c1ccc(Oc2ccccc2)cc1 :: > 41.7 days
O=C(NCc1ccncn1)c1ccc(Oc2ccc(C#C[C@@]3(O)CN4CCC3CC4)cc2)cc1 :: > 41.7 days
O=C(NCc1ccncc1)c1ccc(-c2ccccc2)cc1 :: > 41.7 days
N#Cc1ccccc1Oc1ccc(C(=O)NCc2ccncc2)cc1 :: > 41.7 days
